target: UniProt:A0A809N5C7; assay: Sulfonamide inhibition of LrhCA, stopped-flow CO2 hydrase assay; assay type: biochemical, Lactobacillus rhamnosus GG; conditions: stopped-flow CO2 hydrase assay; mean from three different assays, errors 5–10%; recombinant LrhCA; 15 min preincubation at room temperature; read-out: Ki LrhCA
Sequence (A0A809N5C7 1-215): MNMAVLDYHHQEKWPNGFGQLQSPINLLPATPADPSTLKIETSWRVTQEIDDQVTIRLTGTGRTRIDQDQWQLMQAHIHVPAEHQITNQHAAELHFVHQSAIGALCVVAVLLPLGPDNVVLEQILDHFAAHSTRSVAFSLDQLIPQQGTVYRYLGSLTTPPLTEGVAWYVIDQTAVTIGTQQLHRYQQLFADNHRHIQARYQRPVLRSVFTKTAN
value_type: pKi
Give bare numbers, as −log10 of the molar value.

Known pKi results, listed for orientation:
| molecule | pKi |
| --- | --- |
| NS(=O)(=O)c1cc(Cl)cc(Cl)c1O [compound 10] | 5.30 |
| Nc1ccc(S(=O)(=O)Nc2ccc(S(N)(=O)=O)cc2)cc1 [compound 22] | 6.25 |
| NS(=O)(=O)c1cccc(S(N)(=O)=O)c1 [compound 3] | 5.52 |

Input line: Need pKi, item NS(=O)(=O)c1ccc(CCNS(=O)(=O)c2ccc([N+](=O)[O-])cc2CO)cc1
Output line: 6.42

Data provenance is paper PMC9200688.
